- Measured target: BRM (Homo sapiens)
- Construct: made in house; host or cells: High Five insect cells
- Sequence (P51531 whole entry): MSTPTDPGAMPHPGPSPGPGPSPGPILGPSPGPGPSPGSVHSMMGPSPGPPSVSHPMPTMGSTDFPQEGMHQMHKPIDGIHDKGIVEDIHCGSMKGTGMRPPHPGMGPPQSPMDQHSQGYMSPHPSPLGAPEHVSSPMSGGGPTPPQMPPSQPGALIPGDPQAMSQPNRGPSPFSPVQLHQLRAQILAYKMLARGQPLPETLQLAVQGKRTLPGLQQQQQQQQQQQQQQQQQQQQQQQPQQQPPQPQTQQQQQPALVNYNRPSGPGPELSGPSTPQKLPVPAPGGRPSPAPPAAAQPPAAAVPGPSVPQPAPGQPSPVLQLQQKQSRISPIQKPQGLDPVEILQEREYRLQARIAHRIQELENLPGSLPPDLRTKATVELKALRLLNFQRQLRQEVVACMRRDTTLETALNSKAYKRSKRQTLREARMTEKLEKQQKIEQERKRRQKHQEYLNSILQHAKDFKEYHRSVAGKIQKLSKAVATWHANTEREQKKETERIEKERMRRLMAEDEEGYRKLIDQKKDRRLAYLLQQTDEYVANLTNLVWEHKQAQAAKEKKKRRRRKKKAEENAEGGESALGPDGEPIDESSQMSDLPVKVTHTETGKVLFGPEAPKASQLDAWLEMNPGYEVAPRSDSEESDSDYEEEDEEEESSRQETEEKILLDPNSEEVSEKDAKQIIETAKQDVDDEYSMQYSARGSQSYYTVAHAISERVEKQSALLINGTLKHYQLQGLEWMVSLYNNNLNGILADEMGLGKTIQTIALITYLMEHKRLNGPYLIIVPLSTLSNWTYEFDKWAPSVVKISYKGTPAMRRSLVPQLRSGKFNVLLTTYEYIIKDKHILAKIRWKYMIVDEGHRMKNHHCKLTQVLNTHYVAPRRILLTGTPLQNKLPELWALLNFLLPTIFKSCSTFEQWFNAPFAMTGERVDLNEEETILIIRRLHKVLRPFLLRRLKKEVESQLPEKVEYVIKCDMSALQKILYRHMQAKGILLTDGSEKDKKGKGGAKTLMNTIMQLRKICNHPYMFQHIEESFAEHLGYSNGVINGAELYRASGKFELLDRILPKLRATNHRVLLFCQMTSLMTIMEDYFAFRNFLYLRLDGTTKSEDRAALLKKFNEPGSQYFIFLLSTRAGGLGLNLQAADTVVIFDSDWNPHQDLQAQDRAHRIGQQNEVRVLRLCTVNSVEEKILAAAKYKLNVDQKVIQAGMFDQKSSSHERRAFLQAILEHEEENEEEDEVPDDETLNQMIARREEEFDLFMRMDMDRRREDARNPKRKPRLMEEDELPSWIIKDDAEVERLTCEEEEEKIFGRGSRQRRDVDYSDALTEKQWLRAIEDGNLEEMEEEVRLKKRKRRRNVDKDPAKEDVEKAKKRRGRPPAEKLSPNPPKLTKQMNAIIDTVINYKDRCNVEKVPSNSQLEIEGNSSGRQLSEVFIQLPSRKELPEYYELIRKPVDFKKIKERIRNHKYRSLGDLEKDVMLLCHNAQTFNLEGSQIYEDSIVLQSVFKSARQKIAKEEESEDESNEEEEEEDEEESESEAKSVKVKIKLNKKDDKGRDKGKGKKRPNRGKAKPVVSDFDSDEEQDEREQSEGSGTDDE
- Assay remarks: ATPase catalytic activity of BRM, ADP-Glo in vitro biochemical assay
- Run conditions: ratio BRG1 IC50 / BRM IC50
Labelling: Ratio* reported below 9 becomes y; at or above becomes n.

Record excerpt, results attached:
Query string: In plain terms, does COc1cc(F)cc2c1CCCN2c1ccc2cnc(CNC(=O)c3ccc4c(c3)S(=O)(=O)CCOC4)cc2n1 [Compound 750] come in under 9 for Ratio*?
Result string: y

Query string: Here's an entry: CN(C)c1ccnc2c1CCCN2c1ccc2cnc(CNC(=O)c3ccc4c(c3)S(=O)(=O)CCOC4)cc2n1 [Compound 837] . Is its Ratio* below 9?
Result string: y

Query string: Strictly below 9 in Ratio*? COc1c(F)cnc2c1CCCN2c1ccc2cnc(CNC(=O)c3ccc4c(c3)S(=O)(=O)CCOC4)cc2n1 [Compound 802]
Result string: y

Query string: Report whether reported Ratio* is lower than 9 (strictly) for Cc1cnc2c(c1)C1(CCN2c2ccc3cnc(CNC(=O)c4ccc5c(c4)S(=O)(=O)CCOC5)cc3n2)CC1 [Compound 734]
Result string: n

Continuing:
Query string: Report whether reported Ratio* is lower than 9 (strictly) for COCCN(c1cc(C2CC2)ccn1)c1ccc2cnc(CNC(=O)c3ccc4c(c3)S(=O)(=O)CCOC4)cc2n1 [Compound 829]
Result string: y

Query string: Criterion: Ratio* strictly below 9. Is it met by [2H]C1([2H])OC([2H])([2H])C([2H])([2H])S(=O)(=O)c2cc(C(=O)NCc3cc4nc(N5CCOc6ccc(C(F)F)nc65)ccc4cn3)ccc21 [Compound 807] ?
Result string: n

Query string: Please state whether Ratio* is below 9 for O=C(NCc1cc2nc(N3CCOc4ccc(C5CCC5)nc43)ccc2cn1)c1ccc2c(c1)S(=O)(=O)CCOC2 [Compound 722]
Result string: n

Query string: A record lists CN(C)c1nccc2c1CCCN2c1ccc2cnc(CNC(=O)c3ccc4c(c3)S(=O)(=O)CCOC4)cc2n1 [Compound 836] . Is its Ratio* below 9?
Result string: y

Query string: Find out if reported Ratio* for CO[C@@H](C)COc1ccc2c(c1)N(c1ccc3cnc(CNC(=O)c4ccc5c(c4)S(=O)(=O)CCOC5)cc3n1)CCC2 [Compound 706] is less than 9
Result string: n
